meta.source: paper PMC6009956

# Subject Of Test: EGFR (Homo sapiens, UniProt P00533)
# Sequence (P00533 25-1210): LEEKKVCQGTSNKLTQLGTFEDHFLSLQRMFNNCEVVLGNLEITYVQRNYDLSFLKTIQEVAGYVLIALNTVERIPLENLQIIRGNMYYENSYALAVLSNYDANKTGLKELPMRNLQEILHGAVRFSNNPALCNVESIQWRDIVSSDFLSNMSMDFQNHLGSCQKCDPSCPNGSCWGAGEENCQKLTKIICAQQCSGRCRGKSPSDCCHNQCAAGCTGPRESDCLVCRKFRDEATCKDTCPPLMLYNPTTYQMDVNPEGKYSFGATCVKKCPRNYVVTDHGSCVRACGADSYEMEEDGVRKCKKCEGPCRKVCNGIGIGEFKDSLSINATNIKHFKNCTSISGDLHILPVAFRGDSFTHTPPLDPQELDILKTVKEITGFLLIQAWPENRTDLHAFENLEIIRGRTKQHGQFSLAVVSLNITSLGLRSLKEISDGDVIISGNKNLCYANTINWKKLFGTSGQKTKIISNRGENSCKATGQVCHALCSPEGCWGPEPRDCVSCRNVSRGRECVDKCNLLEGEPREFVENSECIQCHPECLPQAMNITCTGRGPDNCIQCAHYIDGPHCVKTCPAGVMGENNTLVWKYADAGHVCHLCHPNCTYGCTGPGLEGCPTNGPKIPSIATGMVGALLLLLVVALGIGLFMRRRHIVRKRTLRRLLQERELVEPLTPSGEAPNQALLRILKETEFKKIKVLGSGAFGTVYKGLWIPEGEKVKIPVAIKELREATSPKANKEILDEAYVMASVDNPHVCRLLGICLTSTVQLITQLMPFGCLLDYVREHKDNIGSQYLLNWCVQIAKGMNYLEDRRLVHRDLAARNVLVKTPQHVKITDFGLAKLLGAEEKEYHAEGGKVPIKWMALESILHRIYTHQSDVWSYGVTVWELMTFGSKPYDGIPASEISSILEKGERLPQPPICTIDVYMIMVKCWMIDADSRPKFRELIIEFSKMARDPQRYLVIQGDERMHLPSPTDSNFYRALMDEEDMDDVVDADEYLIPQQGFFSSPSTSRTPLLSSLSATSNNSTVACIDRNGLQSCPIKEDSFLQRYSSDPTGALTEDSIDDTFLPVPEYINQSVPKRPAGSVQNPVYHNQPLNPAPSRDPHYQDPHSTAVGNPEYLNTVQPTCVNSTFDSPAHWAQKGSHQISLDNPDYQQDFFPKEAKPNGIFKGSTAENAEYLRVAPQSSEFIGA
# Procedure Summary: ADP-Glo kinase assay, EGFR
# Type: biochemical
# Design: purchased BPS Bioscience (assay run externally by the vendor)
# Condition Summary: Log[nM] 2.0; Set1
Listed below: EGFR % Activity Set1 values for each entry.
Observed Property: EGFR % Activity Set1

structure_string=Clc1ccc(Nc2ncnc3[nH]ccc23)cc1 subject_of_test="EGFR (Homo sapiens, UniProt P00533)" observed_property="EGFR % Activity Set1" value=50%
structure_string=Clc1ccc(Nc2ncnc3[nH]ccc23)cc1Br subject_of_test="EGFR (Homo sapiens, UniProt P00533)" observed_property="EGFR % Activity Set1" value=4%
structure_string=c1ccc(Nc2ncnc3[nH]ccc23)cc1 subject_of_test="EGFR (Homo sapiens, UniProt P00533)" observed_property="EGFR % Activity Set1" value=66%
structure_string=Clc1ccc(Nc2ncnc3[nH]ccc23)cc1Cl subject_of_test="EGFR (Homo sapiens, UniProt P00533)" observed_property="EGFR % Activity Set1" value=8%
structure_string=COc1ccc(Nc2ncnc3[nH]ccc23)cc1 subject_of_test="EGFR (Homo sapiens, UniProt P00533)" observed_property="EGFR % Activity Set1" value=99%
structure_string=Cc1cccc(Nc2ncnc3[nH]ccc23)c1 subject_of_test="EGFR (Homo sapiens, UniProt P00533)" observed_property="EGFR % Activity Set1" value=19%
